Value source: patent US20250270343A1

Collected PDL1 (FoB) values appear next to each entry.
# test-system: T1, full-length untagged human GPNMB expressed on cells (human, UniProt Q14956 23-572)
# T1 sequence: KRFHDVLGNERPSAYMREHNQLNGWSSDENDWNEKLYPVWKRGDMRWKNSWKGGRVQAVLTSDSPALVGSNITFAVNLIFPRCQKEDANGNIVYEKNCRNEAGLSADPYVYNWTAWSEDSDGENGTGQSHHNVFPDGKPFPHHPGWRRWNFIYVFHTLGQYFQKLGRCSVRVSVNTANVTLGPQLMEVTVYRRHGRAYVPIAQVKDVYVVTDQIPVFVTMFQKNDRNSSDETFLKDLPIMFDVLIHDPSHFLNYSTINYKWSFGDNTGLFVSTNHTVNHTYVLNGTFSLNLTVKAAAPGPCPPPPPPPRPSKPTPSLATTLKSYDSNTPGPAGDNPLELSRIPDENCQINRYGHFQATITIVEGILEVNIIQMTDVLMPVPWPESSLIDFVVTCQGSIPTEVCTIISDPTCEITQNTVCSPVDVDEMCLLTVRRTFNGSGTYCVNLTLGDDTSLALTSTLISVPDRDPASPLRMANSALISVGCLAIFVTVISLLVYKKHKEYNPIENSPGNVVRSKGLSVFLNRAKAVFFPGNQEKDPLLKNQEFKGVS
# protocol-summary: cell-based or functional assay
value-kind: PDL1 (FoB)

{"binder": "anti-GPNMB antibody GPN-01 (antibody, human IgG1, V domains shown, chimeric) VH: QVQLQQSGAELAKPGASVKLSCKASGYNFTNYCIHWVKQRPGQGLEWIGYINPSTGYTEYNQKFKDKATLTADKSSTTAYMQLSSLTSEDSAVYYCARGRYDEFTYWGQGTLVTVSA VL: DIVLTQSPASLAVSLGQRATISCRASKSVSTSTYSYMHWYQQKPGQPPKLLIYLASNLESGVPARFSGSGSGTDFTLNIHPVEEEDAATYYCQHSRELPPTFGGGTKLEIK", "units-symbol": "FoB", "reported-value": 1.7}
{"binder": "anti-GPNMB antibody GPN-25 (antibody, human IgG1, V domains shown, chimeric) VH: EVQLQQSGPELVKPGASVKISCKASGYSFTGYYMNWVKQSPEKSLEWIGEINPGSGITTYNQKFKAKATLTVDKSSSTAYLQLKSLTSEDSAVYYCARPASWFAYWGQGTLVTVSA VL: DIQMTQSPSSLSASLGERVSFICRASQEISGHLSWLQQKPDGTIKRLIYAASTLDSGVPKRFSGSRSGSDYSLTISSLESEDFADYYCLQYASYPYTFGGGTKLEIK", "units-symbol": "FoB", "reported-value": 1.73}
